// reported Ki per item
- Tgt: GCN2 kinase (Homo sapiens)
- Sequence (Q9P2K8 whole entry): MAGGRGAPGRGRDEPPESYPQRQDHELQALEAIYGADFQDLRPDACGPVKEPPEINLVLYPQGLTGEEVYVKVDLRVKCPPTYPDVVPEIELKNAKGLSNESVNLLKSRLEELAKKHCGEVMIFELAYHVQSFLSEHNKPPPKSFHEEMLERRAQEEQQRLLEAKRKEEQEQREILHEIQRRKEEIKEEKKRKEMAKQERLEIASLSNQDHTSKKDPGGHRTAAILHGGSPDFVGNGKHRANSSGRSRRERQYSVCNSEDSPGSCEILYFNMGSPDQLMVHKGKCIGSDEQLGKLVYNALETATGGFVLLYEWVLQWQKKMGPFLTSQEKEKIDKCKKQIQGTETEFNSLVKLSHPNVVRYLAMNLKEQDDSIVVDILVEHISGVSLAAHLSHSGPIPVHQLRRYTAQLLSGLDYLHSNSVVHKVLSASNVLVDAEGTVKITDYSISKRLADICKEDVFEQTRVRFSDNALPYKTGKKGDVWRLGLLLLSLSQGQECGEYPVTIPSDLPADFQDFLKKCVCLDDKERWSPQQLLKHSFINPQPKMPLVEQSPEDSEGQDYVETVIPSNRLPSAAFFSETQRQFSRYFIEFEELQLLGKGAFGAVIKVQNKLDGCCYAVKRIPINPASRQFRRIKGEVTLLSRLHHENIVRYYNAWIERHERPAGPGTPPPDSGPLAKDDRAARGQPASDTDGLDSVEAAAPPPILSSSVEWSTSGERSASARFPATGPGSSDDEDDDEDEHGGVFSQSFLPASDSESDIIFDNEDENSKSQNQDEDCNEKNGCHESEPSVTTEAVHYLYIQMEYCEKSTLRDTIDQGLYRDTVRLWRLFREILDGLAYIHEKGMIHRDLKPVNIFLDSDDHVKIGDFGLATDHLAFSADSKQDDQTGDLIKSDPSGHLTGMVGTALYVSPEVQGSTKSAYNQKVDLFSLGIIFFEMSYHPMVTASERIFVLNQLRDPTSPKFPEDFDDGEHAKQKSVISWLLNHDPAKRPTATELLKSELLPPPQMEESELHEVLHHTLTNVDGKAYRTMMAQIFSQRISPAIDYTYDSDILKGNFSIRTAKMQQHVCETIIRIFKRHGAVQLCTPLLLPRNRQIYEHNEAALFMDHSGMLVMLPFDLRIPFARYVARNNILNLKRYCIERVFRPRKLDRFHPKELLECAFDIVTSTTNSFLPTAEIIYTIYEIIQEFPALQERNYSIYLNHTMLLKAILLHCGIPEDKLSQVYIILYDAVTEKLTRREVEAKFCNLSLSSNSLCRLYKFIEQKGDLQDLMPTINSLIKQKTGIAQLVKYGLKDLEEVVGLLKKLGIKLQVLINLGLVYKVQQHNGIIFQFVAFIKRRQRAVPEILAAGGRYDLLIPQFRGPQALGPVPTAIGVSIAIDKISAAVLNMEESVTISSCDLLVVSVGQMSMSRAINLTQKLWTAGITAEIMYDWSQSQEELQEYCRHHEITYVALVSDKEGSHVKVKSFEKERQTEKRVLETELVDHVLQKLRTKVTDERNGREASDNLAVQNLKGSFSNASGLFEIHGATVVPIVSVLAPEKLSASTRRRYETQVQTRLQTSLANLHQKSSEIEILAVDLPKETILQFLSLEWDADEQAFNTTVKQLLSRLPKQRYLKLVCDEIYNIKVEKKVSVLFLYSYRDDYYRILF
- Assay name: GCN2 enzyme inhibition assay (Transcreener ADP2 fluorescence polarization)
- Assay type: biochemical
- Test conditions: compounds of Formula II; 280 μM ATP, 4 nM GCN2 kinase

As a guide, the following entries are already answered.
>>> value_measured("CS(=N)(=O)CC1CCCN(c2cc(-c3cnc4ccc(C(F)F)nn34)ncn2)C1 (stereo not shown) [II-370]")
"10 to 1000 nM"
>>> value_measured("CC1C(CNS(C)(=O)=O)C(F)(F)C(C)CN1c1cc(-c2cnc3ccc(C(F)F)nn23)ncn1 (single isomer, unassigned) [II-470]")
"10 to 1000 nM"
>>> value_measured("COCCN1CCN(c2cc(-c3cnc4ccc(C(F)F)nn34)ncn2)C(C)C1CNS(C)(=O)=O (stereo not shown)")
"< 10 nM"

Next item in the queue.
Reported Ki for CC1C(CNS(C)(=O)=O)N(C2CC2)CCN1c1cc(-c2cnc3ccc(C(F)F)nn23)ncn1 (single isomer, unassigned) [II-479] : what is it? < 10 nM

====

- Tgt: GCN2 kinase (Homo sapiens)
- Assay name: GCN2 enzyme inhibition assay (Transcreener ADP2 fluorescence polarization)
- Assay type: biochemical
- Test conditions: compounds of Formula II; 280 μM ATP, 4 nM GCN2 kinase
Parameter: Ki

As a guide, the following entries are already answered.
>>> value_measured("CS(=O)(=O)NCC1CCCN(c2cc(-c3cnc4ccc(C(F)F)nn34)c(Cl)cn2)C1 (centres unmarked) [II-730]")
"0.01 to 1 µM"
>>> value_measured("NCC1CCN(c2cc(-c3cnc4ccc(C(F)F)nn34)ncn2)C1 (centres unmarked) [II-409]")
"0.01 to 1 µM"
>>> value_measured("CC1CN(c2cc(-c3cnc4ccc(C(F)F)nn34)ncn2)CC(CNS(C)(=O)=O)C1=O (centres unmarked) [II-525]")
"< 0.01 µM"

Next item in the queue.
Reported Ki for Clc1ccc2ncc(-c3ccnc(-c4ccccc4)c3)n2n1 [II-27] : what is it? 0.01 to 1 µM

====

- Tgt: GCN2 kinase (Homo sapiens)
- Assay name: GCN2 enzyme inhibition assay (Transcreener ADP2 fluorescence polarization)
- Assay type: biochemical
- Test conditions: Enzyme activity for compounds of Formula IV; Ki(app), 280 μM ATP, 25° C.
pKi: −log10 of the molar value.
// reported pKi per item

>>> value_measured("CCOc1cccc(-c2cn3c(-c4nccc(N5CCN(C(C)=O)CC5)n4)cnc3cn2)c1 [IV-299]")
"7.00 to 8.00"
>>> value_measured("N=S1(=O)CCN(c2ccnc(-c3cnc4cnc(C(F)(F)F)cn34)n2)CC1 [IV-729]")
"< 6.00"
>>> value_measured("c1cn2c(-c3nccc(N4CCOC(c5cn[nH]c5)C4)n3)cnc2cn1 (centres unmarked) [IV-39]")
"6.00 to 7.00"
>>> value_measured("O=C1CN(C2CCN(c3ccnc(-c4cnc5cnc(C(F)(F)F)cn45)n3)C2)CCN1 (centres unmarked) [IV-602]")
"6.00 to 7.00"
>>> value_measured("CC1CC(C(N)=O)C(C)N(c2ccnc(-c3cnc4cnc(C(F)(F)F)cn34)n2)C1 (single isomer, unassigned) [IV-501]")
"> 8.00"
>>> value_measured("COCC1CN(c2ccnc(-c3cnc4cnc(C(F)(F)F)cn34)n2)CCO1 (centres unmarked) [IV-588]")
"6.00 to 7.00"

Reported pKi for CC1CCCN(c2ccnc(-c3cnc4cnc(C(N)=O)cn34)n2)C1C (centres unmarked) [IV-264] : what is it? > 8.00

Another: O=C1CCCC2CN(c3ccnc(-c4cnc5cnc(Cl)cn45)n3)CCN12 (single isomer, unassigned) [IV-294] 7.00 to 8.00
